B1: glmS ribozyme (parent)
chain: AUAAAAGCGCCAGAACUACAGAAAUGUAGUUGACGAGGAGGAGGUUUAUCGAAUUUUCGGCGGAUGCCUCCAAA

variants of: B1; assay: self-cleavage kobs at 640 uM GlcN6P; higher = faster cleavage; RNA array; conditions: with glucosamine-6-phosphate
Fewer inactive variants are shown than the library holds.
I'd be grateful if you could share measured self-cleavage kobs at 640 uM GlcN6P for these entries.
One number for each entry, in s⁻¹.

Examples from the recorded data:
   variant_id                     observation_type  value_units       val
0   U30C G32C  self-cleavage kobs at 640 uM GlcN6P          s⁻¹  5.99e-05
1   A12U G41C  self-cleavage kobs at 640 uM GlcN6P          s⁻¹  0.000108
2   U31A C71A  self-cleavage kobs at 640 uM GlcN6P          s⁻¹   0.00049

Provide reported self-cleavage kobs at 640 uM GlcN6P for each item, in the same order as listed.
1. U2C
2. G38A C58U C68G
3. U30C C67A C70G
4. U55G C68A
5. A15C C16A C67U
6. U46G C67U

1: 0.0102; 2: 5.5e-05; 3: 6.32e-05; 4: 6.91e-05; 5: 0.000115; 6: 0.00143
